# Test system: EKVX NSCLC
# Test Name: NCI-60 one-dose screen, 48 h (100 = growth as untreated, 0 = no growth, -100 = all killed)
# Recorded Conditions: 10 µM unless noted
This is part of a sample that, as a whole, favours compounds with a hit. Of some 83,000 tested, about 20% had one in any assay. Activity calls are given as the source filed them. How the source made its calls: active means growth percent below 10; inactive means the rest.
Exercise: state measured growth for each of the molecules provided.

Study these solved cases before continuing.
| Molecule | Reported Result |
| --- | --- |
| C/C=C(/C)C(=O)O[C@@H]1CC(C)(C)CC2C34OC(=O)[C@@]21CC[C@@]3(C)[C@]1(C)CCC2C(C)(C)C(=O)CC[C@]2(C)C1C[C@@H]4Cl (some centres undefined) | 92% (inactive) |
| CCCCCCCCCCCCC[C@H](O)C[C@H](O)[C@H](C)N | 99.4% [1.25 µM] (inactive) |
| O=C1/C(=C/c2ccc(-c3cccc(C(F)(F)F)c3)o2)SC(=S)N1CCc1ccc(O)cc1 | 89% (inactive) |

Provide growth for all items below, preserving their order.
1. O=C1C(c2c[nH]c3ccccc23)=C(c2coc3cc(Br)ccc23)C(=O)N1O
2. O=C(Nc1ccc(F)cc1)c1cc2cc(Nc3nc(-c4ccccc4)nc4ccccc34)ccc2oc1=O
3. COc1cc(/C=C2\CCC/C(=C\c3cc(CN4CCCC4)c(O)c(OC)c3)C2=O)cc(CN2CCCC2)c1O
4. COC(=O)/C=C1/SC(N2N=C(c3cccs3)CC2c2ccc(F)cc2)=NC1=O (centres undefined)
5. COC(=O)N/N=C/c1c[n+]([O-])c2ccccc2[n+]1[O-]
6. COc1cc(Nc2nc3ccccc3cc2C(=O)Nc2ccc(F)c(F)c2)cc(OC)c1OC

Result ::
1: 84.3% (inactive); 2: 108% (inactive); 3: 32.4% (inactive); 4: 94% (inactive); 5: 100% (inactive); 6: 30% (inactive)

###

# Tested on: NCI-H460 lung
# Test Name: NCI-60 one-dose screen, 48 h (100 = growth as untreated, 0 = no growth, -100 = all killed)
# Recorded Conditions: 10 µM unless noted
The panel holds about 83,000 compounds, 20% with a hit somewhere; the sample as a whole holds those more often. Activity calls are given as the source filed them. How the source made its calls: active means growth percent below 10; inactive means the rest.
Readout Kind: growth

| Compound | Reported Result |
| --- | --- |
| NC(N)=NC(N)=NCCCc1ccco1 | 108% (inactive) |
| CCN1C(=S)N(CC)C2C1NC(=S)N2/N=C/C=C/c1ccccc1 (centres undefined) | 12.4% (inactive) |
| O=C(CCN1CCOCC1)Nc1cccc(-n2cc(-c3ccncc3)c(-c3ccc(Cl)c(O)c3)n2)c1 | 17.8% (inactive) |

Provide growth for all items below, preserving their order.
1. CCOC(=O)C(=Cc1ccc(C#N)cc1)C(=O)OCC
2. COc1ccc(/C=N\Nc2nc(SCC(C)C)nc(-c3ccc(OC)cc3)c2C#N)cc1

Result ::
1: 81.6% (inactive); 2: -11.1% (active)

Provide growth for all items below, preserving their order.
1. CC[C@]1(O)CC2CN(CCc3c([nH]c4ccccc34)C(C(=O)OC)(c3cc4c(cc3OC)N(C=O)[C@H]3[C@@](O)(C(=O)OC)[C@H](OC(C)=O)[C@]5(CC)[C@@H]6C[C@@H]6CN6CC[C@]43[C@@H]65)C2)C1 (some centres undefined)
2. NC(=O)c1c(NC(=O)/C=C/c2cccs2)sc2c1CCC(=O)C2
3. CCOc1ccccc1NC(=O)c1cc2ccccc2cc1O
4. COc1cc2c(cc1OCCCOC1=C=C=C(c3ccc4c(c3)c3cc(-c5ccc(OCCCOc6cc7c(cc6OC)C(=O)N6CCC[C@H]6C=N7)cc5)ccc3n4S(=O)(=O)c3ccc(C)cc3)C=C1)N=C[C@@H]1CCCN1C2=O

Result ::
3.37% (active)
58% (inactive)
26.9% (inactive)
15.5% (inactive)

###

# Tested on: SW-620 colon
# Test Name: NCI-60 one-dose screen, 48 h (100 = growth as untreated, 0 = no growth, -100 = all killed)
# Recorded Conditions: 10 µM unless noted
The panel holds about 83,000 compounds, 20% with a hit somewhere; the sample as a whole holds those more often.
Readout Kind: growth (%)
Answers are plain numbers, in %.

| Sample Smiles | Endpoint Unit | growth |
| --- | --- | --- |
| Nc1n[nH]c2cccc(C#Cc3cccc(NC(=O)c4ccc(N5CCOCC5)c(C(F)(F)F)c4)c3)c12 | % | 21.5 |

Provide growth for all items below, preserving their order.
1. Cc1ccc(S(=O)(=O)OC[C@@]2(C)CC[C@]3(C)CC[C@]4(C)C(=C3C2)C=C[C@@H]2[C@@]3(C)CCCNC(C)(C)[C@@H]3CC[C@]24C)cc1
2. COc1nc2ccc(C)cc2cc1/C=[N+](\[O-])c1ccccc1
3. [2H]C([2H])([2H])Oc1cc(F)ccc1/C=C/C(=O)/C=C(/C=C/c1ccc(F)cc1OC([2H])([2H])[2H])OB(F)F

Result ::
1: -85.8; 2: 49.9; 3: 22.3

###

# Test system: OVCAR-4 ovarian
# Test Name: NCI-60 one-dose screen, 48 h
# Recorded Conditions: 10 µM unless noted
About 83,000 compounds went through this panel and 20% of them were active in at least one assay; those are over-represented in the sample as a whole. Active and inactive are the calls of the source. The calls were made as follows: active = growth percent below 10; inactive = the rest.
Choose one outcome from this list and give only that: YES (active), NO (inactive)

Worked examples, 5 compounds total:
| Compound | Class Assignment |
| --- | --- |
| Cc1c(C(C)(C)O)cn2ncnc(Oc3ccc(NC(=O)Nc4ccc(Cl)c(C(F)(F)F)c4)cc3)c12 | NO |
| COc1ccc(-c2[nH]c3ccccc3c2-c2ccc(OC)cc2)cc1 | NO |
| COc1cc(/C=C/C(=O)c2ccc(NC(=O)CSc3nnc(-c4cc(-c5ccccc5)nc5ccccc45)n3-c3ccccc3)cc2)cc(OC)c1OC | NO |
| OCc1cc(CN2CCCCC2)c(O)c2ncccc12 | NO |
| COCCOc1cc2ncnc(N3CCN(S(=O)(=O)c4ccccc4Cl)CC3)c2cc1OCCOC | NO |

Query :: Please share the test call associated with O=C(Nc1ccc(F)cc1)c1cc2cc(Nc3nc(-c4ccccc4)nc4ccccc34)ccc2oc1=O .
Result :: NO

Query :: Please share the test call associated with COc1ccc2nc3cc(Cl)ccc3c(NCCCNCCC(C)O)c2c1 (centres undefined) .
Result :: YES

Query :: Please share the test call associated with COc1cc(/C=C2/C=C(c3ccc(C(C)(C)C)cc3)N(CCc3ccc(S(N)(=O)=O)cc3)C2=O)cc(OC)c1OC .
Result :: NO

Query :: Please share the test call associated with O=C1N=c2ccccc2=C1c1sc(=S)n(C2CC(=O)N(c3ccc(Cl)cc3)C2=O)c1O (centres undefined) .
Result :: NO

###

# Test system: PC-3 prostate
# Test Name: NCI-60 one-dose screen, 48 h (100 = growth as untreated, 0 = no growth, -100 = all killed)
# Recorded Conditions: 10 µM unless noted
# Method: Growth inhibition of the PC-3 human tumor cell line is measured as a screen for anti-cancer activity. Cells are grown in 96 well plates and exposed to the test compound for 48 hours. Compounds are tested at a single concentration, which is 10^-5 M for most compounds. The reported endpoint is percent growth (GI% or GIPRCNT), where numbers from 0 - 100% represent growth inhibition, and numbers from -100% - 0 represent cell death. For example, a value of 40 represents 60% growth inhibition. […]
The panel holds about 83,000 compounds, 20% with a hit somewhere; the sample as a whole holds those more often.
Could you please mark met for values of growth below 60% and not met for values at or above it?

Worked examples, 5 compounds total:
| Compound | Class Assignment |
| --- | --- |
| COC(=O)/C=C1/SC(=Nc2ccc([N+](=O)[O-])cc2)N(CCc2c[nH]c3ccccc23)C1=O | not met |
| Fc1ccc(NC(c2ccc(F)cc2)C2CCN(CCCCc3ccccc3)CC2)cc1 (stereo not drawn) | met |
| O=C(NCc1cccnc1)/C(=C\c1ccc(Br)cc1)S(=O)(=O)c1ccccc1 | met |
| Cc1ccc(-c2nc([P+](c3ccccc3)(c3ccccc3)c3ccccc3)c(Nc3ccccc3)o2)cc1 | met |
| CCCCCCCCn1ccc2cc(NC(=O)CN3CCN(c4nc(C)cc(N5CCCCC5)n4)CC3)ccc21 | not met |

Query :: Please let me know if CC1(C)C(N)=Nc2cc(OCCCN3Cc4ccc(OCCc5cn(CC(=O)N6CCC(CCN7CCCC7)CC6)nn5)cc4C3)c(OCC3CC3)cc21 shows growth below 60%.
Result :: not met

###

# Test system: TK-10 renal
# Test Name: NCI-60 one-dose screen, 48 h (100 = growth as untreated, 0 = no growth, -100 = all killed)
# Recorded Conditions: 10 µM unless noted
About 83,000 compounds went through this panel and 20% of them were active in at least one assay; those are over-represented in the sample as a whole. The source made the active and inactive calls. The calls were made as follows: active = growth percent below 10; inactive = the rest.
Exercise: state measured growth for each of the compounds provided.

Study these solved cases before continuing.
| Compound | Experimental System | Readout Kind | Reported Result |
| --- | --- | --- | --- |
| O=C(/C=C/C12c3ccccc3C(c3ccccc31)C1C(=O)NC(=O)C12)c1ccncc1 (stereo not given) | TK-10 renal | growth | 17.5% (inactive) |
| FC(F)(F)Sc1ccc(/C=C/c2cc(/C=C/c3ccc(SC(F)(F)F)cc3)n(-c3ccccc3)n2)cc1 | TK-10 renal | growth | 100% (inactive) |
| CCN(CC)CCOc1ccccc1C | TK-10 renal | growth | 107% (inactive) |
| BrC1=C(Br)C(Br)(Br)C(Br)=C1Br | TK-10 renal | growth | 97.8% (inactive) |
| CCCCCCCCCCCCC[C@H](O)C[C@H](O)[C@H](C)N | TK-10 renal | growth | 137% [1.25 µM] (inactive) |

Provide growth for all items below, preserving their order.
1. CCCCC1COc2cccc3c2N1C=C/C3=C\C(=O)N(C)c1cccc(Cl)c1 (stereo not given)
2. Cc1[nH]c(C(=O)Nc2nc3ccc(NC(=O)CCN)cc3s2)c(Cl)c1Cl

Result ::
1: 112% (inactive); 2: 113% (inactive)

Provide growth for all items below, preserving their order.
1. O=C1CCc2c(sc3[nH]c(=S)n(Cc4ccc(Cl)cc4)c(=O)c23)C1
2. O=C1/C(=C/c2ccc(-c3ccccc3C(F)(F)F)o2)SC(=S)N1CCc1ccc(O)cc1
3. CCN1C(=O)N(c2ccccc2)C2NC(=S)N(/N=C/C=C/c3ccccc3)C21 (stereo not given)

Result ::
["15.3% (inactive)", "83.1% (inactive)", "50.1% (inactive)"]
